Entries and their measured melting point follow.

{"columns": ["molecule", "melting point"],
 "data": [
  ["Nc1cccc(OCc2ccccc2)c1NC(=O)c1ccc(OCc2ccccc2)c(C23CC4CC(CC(C4)C2)C3)c1", "80 to 82 °C"],
  ["COc1ccc(/C=C/C(=O)Nc2ccccc2C(=O)O)cc1", "194 to 195 °C"],
  ["CCCCCCC(C)(C)c1cc(O)c2c(c1)oc(=O)c1ccc(O)cc12", "103 to 108 °C"],
  ["CC(NC(=O)CN1CCCC1=O)C(=O)N1CC(=O)NC1(C)C (stereo not given)", "198 to 200 °C"],
  ["CCOC(=O)C12CCNC(=O)CC1COC2=O (stereo not given)", "137 to 138 °C"],
  ["Cc1cc(C)c2nsnc2c1N", "113 to 114 °C"],
  ["C[C@@H]1CN(C(=O)[C@@](C)(O)C(F)(F)F)[C@@H](C)CN1S(=O)(=O)c1cccs1", "116 to 117 °C"],
  ["COc1ccccc1CP(CCP(Cc1ccccc1OC)c1ccccc1)c1ccccc1 (stereo not given)", "102 to 104 °C"],
  ["c1cc(NC2=NCCS2)c2occc2c1", "143 to 145 °C"],
  ["CCOC(=O)NCC(=O)O", "55 to 58 °C"],
  ["C=CCOC(=O)C1=C(C)NC(C)=C(C(=O)OC)C1c1cccc([N+](=O)[O-])c1 (single isomer, unassigned; (-))", "215 to 217 °C"],
  ["O=C=Nc1c(F)cc(Cl)c2nc(Cl)sc12", "95 to 98 °C"],
  ["O=c1[nH]cc(-c2cccnc2)nc1Cc1ccccc1", "188 to 190 °C"],
  ["COC(=O)C=C1CN=C(c2ccccc2Cl)c2cc(Cl)ccc2N1", "154 to 158 °C"],
  ["Cc1nc(-c2ccccc2)c(C)c(=O)o1", "68 °C"]
]}
